- System: MCF7
- Assay name: MTT cell viability, MCF7
- Assay type: cell-based
- Set-up: key: NS: the compound was more active in the non-tumor cell line
- Condition label: IC50 MCF10A / IC50 MCF7
Readout label: SI MCF7

Example results:
CN(C)CCOc1ccc(C(=O)N2CCN(S(=O)(=O)c3ccc(Cl)cc3)CC2)cc1 : NS
O=C(c1ccc(N2CCN(S(=O)(=O)c3ccc(Cl)cc3)CC2)nc1)N1CCCC1 : NS
CN(C)CCNc1ccc(C(=O)N2CCN(S(=O)(=O)c3ccc(Cl)cc3)CC2)cn1 : >1.93
CN(C)C(=O)c1ccc(N2CCN(S(=O)(=O)c3ccc(Cl)cc3)CC2)nc1 : NS
CN(C)Cc1ccc(N2CCN(S(=O)(=O)c3ccc(Cl)cc3)CC2)nc1 : 1.75
CN(C)CCOc1ccc(N2CCN(S(=O)(=O)c3ccc(Cl)cc3)CC2)cc1 : 1.37

Now examine the next entry.
Recorded SI MCF7 for O=S(=O)(c1ccc(Cl)cc1)N1CCN(c2ccc(CO)cn2)CC1 on MCF7 was NS

meta.source: paper PMC11433764
